- SYSTEM_UNDER_TEST: PvNMT (Plasmodium vivax, UniProt A5K1A2)
- Sequence (A5K1A2 1-410): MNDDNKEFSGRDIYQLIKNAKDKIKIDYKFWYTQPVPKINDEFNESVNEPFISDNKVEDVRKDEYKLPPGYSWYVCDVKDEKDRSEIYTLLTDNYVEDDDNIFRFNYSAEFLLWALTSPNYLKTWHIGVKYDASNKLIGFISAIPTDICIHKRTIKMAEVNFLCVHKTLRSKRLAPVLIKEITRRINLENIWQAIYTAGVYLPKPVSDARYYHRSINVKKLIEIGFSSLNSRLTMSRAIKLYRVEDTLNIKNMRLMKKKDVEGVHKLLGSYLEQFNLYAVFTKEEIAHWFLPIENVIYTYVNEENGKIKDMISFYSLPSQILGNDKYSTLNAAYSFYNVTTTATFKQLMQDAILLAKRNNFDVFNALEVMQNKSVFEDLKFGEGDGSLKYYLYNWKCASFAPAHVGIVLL
- MEASUREMENT_DESCRIPTION: Fluorogenic NMT inhibition assay, PvNMT
- CONDITION_CONTEXT: recombinant enzyme; mean of duplicate or triplicate experiments
pIC50: −log10 of the molar value.
The following compounds are shown together with reported pIC50 values.

| CHEMICAL_STRING | SYSTEM_UNDER_TEST | pIC50 |
| --- | --- | --- |
| NCCCCCCCCC(=O)N[C@@H](CO)C(=O)N[C@@H](CCCCN)C(N)=O | PvNMT (Plasmodium vivax, UniProt A5K1A2) | < 4.00 |
| NCCCCCCCCC(=O)N[C@@H](CO)C(=O)N[C@@H](CCCCN)C(=O)NCCC1CCCCC1 | PvNMT (Plasmodium vivax, UniProt A5K1A2) | < 4.00 |
| NCCCCCCCCCCC(=O)N[C@@H](CO)C(=O)N[C@@H](CCCCN)C(=O)NCCC1=CCCCC1 | PvNMT (Plasmodium vivax, UniProt A5K1A2) | 4.89 |
